All values here come from patent US20100196385A1.

# Test Target: T1, full length human DLL4 (human, UniProt Q9NR61 27-685)
# T1 construct: whole, on cells; also called native DLL4 expressed in HEK293 cells
# T1 sequence (Q9NR61 27-685): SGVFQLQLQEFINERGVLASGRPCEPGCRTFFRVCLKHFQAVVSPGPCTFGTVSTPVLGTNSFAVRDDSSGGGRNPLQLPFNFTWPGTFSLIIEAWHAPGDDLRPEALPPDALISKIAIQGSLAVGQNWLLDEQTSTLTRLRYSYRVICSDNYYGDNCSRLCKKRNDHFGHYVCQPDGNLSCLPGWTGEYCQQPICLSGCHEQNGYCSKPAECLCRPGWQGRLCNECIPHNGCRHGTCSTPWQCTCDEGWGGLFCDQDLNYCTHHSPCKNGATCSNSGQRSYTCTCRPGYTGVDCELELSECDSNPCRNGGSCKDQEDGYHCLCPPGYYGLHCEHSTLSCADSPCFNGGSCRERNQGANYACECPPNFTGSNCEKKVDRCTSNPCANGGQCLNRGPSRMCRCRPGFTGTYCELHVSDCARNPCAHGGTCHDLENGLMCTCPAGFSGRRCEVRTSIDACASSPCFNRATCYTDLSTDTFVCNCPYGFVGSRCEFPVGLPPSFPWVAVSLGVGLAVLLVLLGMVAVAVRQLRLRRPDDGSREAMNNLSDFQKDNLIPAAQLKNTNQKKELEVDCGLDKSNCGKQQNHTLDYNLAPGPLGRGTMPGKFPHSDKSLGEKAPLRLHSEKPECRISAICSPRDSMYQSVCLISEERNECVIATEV
# Experiment Description: FMAT competition, purified antibody vs Alexa-647 human Notch1/Fc, 293T cells with human DLL4
# Description: To discriminate between the purified antibodies based upon their ability to prevent the interaction between full-length recombinant DLL4 and soluble Notch1/Fc, the following assays were performed. […] After a further 3 h incubation at 4° C., the amount of bound Notch1/Fc was determined by reading the fluorescence in each well using an FMAT 8200 instrument (Applied Biosystems).
This listing pairs binders with measured % inhibition at 16.7 nM.
Provide only the numeric value, understood in %.

Prompt: Endpoint output: % inhibition at 16.7 nM of 12A1 (antibody, IgG4, V domains shown, Fully human; also used where no isotype is printed) VH: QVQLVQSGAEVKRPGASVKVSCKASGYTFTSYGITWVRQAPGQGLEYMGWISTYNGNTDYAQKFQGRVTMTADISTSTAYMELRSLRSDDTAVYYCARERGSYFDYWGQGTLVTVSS VL: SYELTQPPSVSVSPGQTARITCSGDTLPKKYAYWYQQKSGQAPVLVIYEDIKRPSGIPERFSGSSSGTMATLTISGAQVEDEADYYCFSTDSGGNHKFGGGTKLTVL . Value?
Response: 101

Prompt: # % inhibition at 16.7 nM lookup, item 3A7 (antibody, IgG4, V domains shown, Fully human; also used where no isotype is printed) VH: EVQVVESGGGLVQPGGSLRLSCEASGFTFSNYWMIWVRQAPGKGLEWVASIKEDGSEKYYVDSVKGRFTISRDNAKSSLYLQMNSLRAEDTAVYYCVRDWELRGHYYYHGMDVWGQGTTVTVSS VL: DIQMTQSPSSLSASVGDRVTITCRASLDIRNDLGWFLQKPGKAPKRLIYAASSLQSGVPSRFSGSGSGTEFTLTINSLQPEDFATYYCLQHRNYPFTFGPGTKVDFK
Response: 104

Prompt: Endpoint output: % inhibition at 16.7 nM of 4B3 (antibody, IgG4, V domains shown, Fully human; also used where no isotype is printed) VH: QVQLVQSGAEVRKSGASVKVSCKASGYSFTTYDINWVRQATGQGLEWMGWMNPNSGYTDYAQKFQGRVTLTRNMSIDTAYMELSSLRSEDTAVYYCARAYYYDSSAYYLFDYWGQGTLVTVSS VL: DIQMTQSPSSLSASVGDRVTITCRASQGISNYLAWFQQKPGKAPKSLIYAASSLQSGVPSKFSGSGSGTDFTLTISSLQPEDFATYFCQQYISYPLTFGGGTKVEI . Value?
Response: 117

Prompt: // % inhibition at 16.7 nM lookup, key: 17F3 (antibody, IgG2, V domains shown, Fully human; also used where no isotype is printed) VH: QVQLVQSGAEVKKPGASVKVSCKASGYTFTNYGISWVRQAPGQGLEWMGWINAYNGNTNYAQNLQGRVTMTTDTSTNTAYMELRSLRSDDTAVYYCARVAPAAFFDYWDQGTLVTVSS VL: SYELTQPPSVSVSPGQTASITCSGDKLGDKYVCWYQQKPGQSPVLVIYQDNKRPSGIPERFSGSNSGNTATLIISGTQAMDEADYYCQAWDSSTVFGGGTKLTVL
Response: 115

Prompt: Any idea what its % inhibition at 16.7 nM is? The binder is 20G8 (antibody, IgG4, V domains shown, Fully human; also used where no isotype is printed) VH: QVQLVQSGAEVKKPGASVKVSCKASGYTFTSYGISWVRQAPGQGLEWMGWISVYNGNTNYAQKLQGRVTMTTDTSTSTAYMEVRSLRSDDTAVYYCARDRVPRIPRTTEAFDIWGRGTMVTVCS VL: QSVLTQPPSASGTPGQRVTISCSGSSSNIGSYYVYWYQQLPGTAPKLLIYRDNQRPSGVPDRFSGSKSGTSASLAIRGLRSDDEADYYCAAWDDSLSGHWVFGGGTKLTVL
Response: 115
